System: DeltatarO mutant
Experiment: growth inhibition of S. aureus wild type versus tarO mutant, primary screen, teichoic acid synthesis inhibitors, RN4220, OD600 (AID 463173)
Settings: OD600, 18 h, stronger effect = lower value, concentration not given here
Screen size: about 52,000 compounds; about 4,300 (8.3%) were called active. Shown is part of a subset that was picked to be rich in actives.
Mark each entry YES if its survival sits below 90%, and NO for all others.

Task: A record lists `Cc1ccc(-n2c(/C=C/c3ccccc3)nc3ccccc3c2=O)cc1C` . Is its survival below 90%?
Output: YES

Task: Input `Cc1cccc(-n2c(/C=C/c3c(C)[nH]c4ccccc34)nc3ccccc3c2=O)c1` ; condition: survival strictly below 90%. Does it hold?
Output: NO

Task: Is the reported survival for `Cc1ccc(NC(=O)CN2C(=O)CN=C(c3ccccc3)c3ccccc32)cc1Cl` strictly below 90%?
Output: NO

Task: Given `Cc1ccccc1-n1c(/C=C/c2ccccc2F)nc2ccccc2c1=O` , is recorded survival strictly lower than 90%?
Output: YES

Task: Please determine if `Cc1ccc(-n2c(/C=C\c3ccc(F)c(F)c3)nc3ccccc3c2=O)c(C)c1` is below 90% in terms of survival.
Output: NO

====

Exercise: for every item that follows, state its recorded survival.
Test system: DeltatarO mutant
Test: growth inhibition of S. aureus wild type versus tarO mutant, primary screen, teichoic acid synthesis inhibitors, RN4220, OD600 (AID 463173)
Details: OD600, 18 h, stronger effect = lower value, concentration not given here
The whole screen tested about 52,000 compounds, of which about 4,300 (8.3%) were called active. The entries come from a sample that favours actives as a whole.
Could you give me the number in %? Just the number is fine.

Task: API: value(readout=survival, system=DeltatarO mutant) for record `COc1ccc(Br)cc1CN1CCN(C(=O)Cc2ccccc2)CC1`
Output: 73

Task: Can you look up survival on DeltatarO mutant for `Cc1ccc(NC(=O)N(Cc2ccc3c(c2)OCO3)C2CCN(Cc3ccccc3)CC2)cc1Cl` ?
Output: 128

Task: Give the reported survival for `COc1ccccc1CNCCc1ccccc1` (system: DeltatarO mutant).
Output: 95

Task: // lookup survival | system=DeltatarO mutant | key= `Cc1ccccc1-c1nc(CN2C(=O)CN=C(c3ccccc3)c3ccccc32)c(C)o1`
Output: -1

Task: Notebook entry, DeltatarO mutant assay: survival of Cc1c(C(c2ccc(Br)cc2)c2c(O)c3ccccc3oc2=O)c(=O)n(-c2ccccc2)n1C (stereo unspecified) = ?
Output: 49

Task: # query: survival | item `COc1ccc(-c2nc(CN3C(=O)CN=C(c4ccccc4)c4ccccc43)c(C)o2)cc1OC` | system: DeltatarO mutant
Output: 97

Task: Identify the measured survival of `Cc1cc(-n2c(/C=C/c3cccs3)nc3ccccc3c2=O)ccc1Br` for DeltatarO mutant.
Output: 104

Task: Request body: readout survival, system DeltatarO mutant, query `CC(C)NCc1ccc2c(c1)OCO2` . Return the value.
Output: 76

Task: Provide value of survival for this record tested with DeltatarO mutant: `COc1ccc(N=C2SCCCN2C)cc1`
Output: 99

Task: Could you share what survival was measured for Cc1c(C(c2ccc(O)cc2)c2c(O)c3ccccc3oc2=O)c(=O)n(-c2ccccc2)n1C (stereo unspecified) , tested on DeltatarO mutant?
Output: 47

Task: Missing value: survival, DeltatarO mutant, entry `Cc1oc(-c2ccc(Cl)cc2)nc1CN1C(=O)CN=C(c2ccccc2)c2ccccc21` . Fill in?
Output: 49

Ref: PubChem BioAssay AID463173
